These entries and their values trace back to ChEMBL document CHEMBL1773062.

molecular target: Delta-type opioid receptor (Homo sapiens); assay: Displacement of [3H]DADLE from delta opioid receptor
Sequence (P41143 whole entry): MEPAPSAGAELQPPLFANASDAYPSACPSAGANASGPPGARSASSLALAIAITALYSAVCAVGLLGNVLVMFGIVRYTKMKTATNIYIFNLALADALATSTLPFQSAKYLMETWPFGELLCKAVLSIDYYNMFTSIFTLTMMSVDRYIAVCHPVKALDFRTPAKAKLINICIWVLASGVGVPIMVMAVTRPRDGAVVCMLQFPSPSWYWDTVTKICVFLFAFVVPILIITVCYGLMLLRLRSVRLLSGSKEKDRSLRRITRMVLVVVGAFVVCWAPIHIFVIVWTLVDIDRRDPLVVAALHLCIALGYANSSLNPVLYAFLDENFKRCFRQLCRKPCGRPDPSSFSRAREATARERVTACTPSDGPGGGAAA
pKi: −log10 of the molar value.
Metric: pKi

(Q) Give pKi for the following molecule: "COC(=O)c1ccc([C@@H]2C[C@]3(C)[C@H]4C(=O)[C@@H](OC(C)=O)C[C@@H](C(=O)OC)[C@]4(C)CC[C@H]3C(=O)O2)cc1C(=O)OC"
(A) < 5.30

(Q) Give pKi for the following molecule: COC(=O)C1=C(C(=O)OC)C2OC1C=C2[C@@H]1C[C@]2(C)[C@H]3C(=O)[C@@H](OC(C)=O)C[C@@H](C(=O)OC)[C@]3(C)CC[C@H]2C(=O)O1 (stereo partly drawn)
(A) < 5.30

(Q) Give pKi for the following molecule: COC(=O)[C@@H]1C[C@H](OC(C)=O)C(=O)[C@H]2[C@@]1(C)CC[C@H]1C(=O)O[C@H](C3=CC4OC3c3ccccc34)C[C@]21C (stereo partly drawn)
(A) < 5.00
